molecular target: HLA-A*26:01; experiment: IEDB peptide-MHC binding, purified MHC/competitive/fluorescence; filed as Kd, often an IC50 or EC50 that approximates it; bounds were set here for any values at or beyond the usual limits of such assays; conditions: source organism: Ehrlichia chaffeensis
endpoint: Kd

Ask: I am curious: what Kd value has been reported for RVYKNYDPR ?
Reply: ≥ 20 µM

---

molecular target: HLA-B*18:01; assay: IEDB peptide-MHC binding, purified MHC/competitive/radioactivity; filed as Kd, often an IC50 or EC50 that approximates it; bounds were set here for any values at or beyond the usual limits of such assays; settings: source organism: Mammarenavirus machupoense
endpoint: pKd
To interpret pKd, take it as minus log10 of a concentration measured in moles per litre.

Ask: Reported pKd for EEVLDVCPL : what is it?
Reply: 6.43

---

target: HLA-A*02:01; assay: IEDB peptide-MHC binding, purified MHC/competitive/fluorescence; filed as Kd, often an IC50 or EC50 that approximates it; bounds were set here for any values at or beyond the usual limits of such assays; details: source organism: Orthohantavirus tulaense
pKd: −log10 of the molar value.
endpoint: pKd

Ask: Please give the measured pKd for this sequence: VVDALRNIY
Reply: ≤ 4.70

---

target: HLA-A*02:11; assay: IEDB peptide-MHC binding, purified MHC/competitive/fluorescence; filed as Kd, often an IC50 or EC50 that approximates it; bounds were set here for any values at or beyond the usual limits of such assays; conditions: source organism: Vibrio cholerae 2740-80
endpoint: Kd

Ask: # get_value(readout='Kd', item= LAVFPAMFW )
Reply: ≥ 20 µM

---

target: HLA-B*39:01; assay: IEDB peptide-MHC binding, purified MHC/competitive/fluorescence; filed as Kd, often an IC50 or EC50 that approximates it; bounds were set here for any values at or beyond the usual limits of such assays; conditions: source organism: Giardia lamblia ATCC 50803
endpoint: Kd

Ask: Data request, read-out Kd, for LLDDGWAGE
Reply: ≥ 20 µM

---

molecular target: HLA-A*26:01; experiment: IEDB peptide-MHC binding, purified MHC/competitive/fluorescence; filed as Kd, often an IC50 or EC50 that approximates it; bounds were set here for any values at or beyond the usual limits of such assays; settings: source organism: Orthohantavirus tulaense
endpoint: Kd

Ask: Which Kd is listed for VVDALRNIY ?
Reply: ≥ 20 µM

---

biological target: HLA-A*24:02; test: IEDB peptide-MHC binding, purified MHC/competitive/radioactivity; filed as Kd, often an IC50 or EC50 that approximates it; bounds were set here for any values at or beyond the usual limits of such assays; settings: source organism: SARS coronavirus Tor2
pKd: −log10 of the molar value.
endpoint: pKd

Observe how each entry below is paired with its result.
[[record]]
sequence_input = "ELSPRWYFY"
result_value = 4.88

[[record]]
sequence_input = "YSNRNRFLY"
result_value = 5.52

[[record]]
sequence_input = "PYNSVTDTI"
result_value = 8.15

[[record]]
sequence_input = "FYAYLRKHF"
result_value = "≤ 4.50"

[[record]]
sequence_input = "LYIIKLVFLW"
result_value = 7.68


Ask: Query (sequence): AMGKPVPYCY ; field requested: pKd
Reply: ≤ 4.15

Ask: What do you get for AMQKESDDY ?
Reply: ≤ 4.11

Ask: And the next one, VMMSAPPAEY ?
Reply: ≤ 4.45

Ask: Quick one: DTSNPKTPKY
Reply: ≤ 4.15

Ask: Item: FTSCELYHY
Reply: ≤ 4.45

Ask: Follow-up item: KTIVESCGNY
Reply: ≤ 4.15

---

target: HLA-A*24:03; assay: IEDB peptide-MHC binding, purified MHC/direct/fluorescence; filed as Kd, often an IC50 or EC50 that approximates it; bounds were set here for any values at or beyond the usual limits of such assays; conditions: source organism: Influenza A virus (A/Hong Kong/213/2003(H5N1))
endpoint: Kd

Ask: Could you tell me which Kd is on file for CFMYSDFHF ?
Reply: 7.5 nM

---

target: HLA-B*07:02; test: IEDB peptide-MHC binding, purified MHC/competitive/radioactivity; filed as Kd, often an IC50 or EC50 that approximates it; bounds were set here for any values at or beyond the usual limits of such assays; details: source organism: Dengue virus 1 Brazil/97-11/1997
endpoint: pKd
Please express pKd as -log10 of the molar concentration.

Ask: Which pKd value is on record for TPQDNQLAYV ?
Reply: 6.48

---

target: HLA-B*07:02; experiment: IEDB peptide-MHC binding, purified MHC/direct/fluorescence; filed as Kd, often an IC50 or EC50 that approximates it; bounds were set here for any values at or beyond the usual limits of such assays; details: source organism: Escherichia coli O157:H7
endpoint: Kd

Completed entries (count: 2):
[[record]]
sequence_input = "PLKVKDIPF"
endpoint = "Kd"
result_value = "≥ 20 µM"

[[record]]
sequence_input = "AHGWSTFYL"
endpoint = "Kd"
result_value = "≥ 20 µM"


Here's the next entry for you.
Ask: Recorded Kd of LPEFERRTL , please.
Reply: 0.0371 µM

---

target: HLA-B*51:01; test: IEDB peptide-MHC binding, purified MHC/competitive/radioactivity; filed as Kd, often an IC50 or EC50 that approximates it; bounds were set here for any values at or beyond the usual limits of such assays; settings: source organism: Dengue virus 2 Jamaica/1409/1983
endpoint: pKd
Just the number, please; pKd means minus log10 of the concentration in mol/L.

Below are worked cases with known answers.
[[record]]
sequence_input = "VAVSFVTLI"
result_value = 6.37

[[record]]
sequence_input = "NPTVDGITV"
result_value = 5.20

[[record]]
sequence_input = "LPIRYQTPAI"
result_value = 7.16

[[record]]
sequence_input = "FLFLMSGKGI"
result_value = 5.25


We next turn to a different sequence, shown below.
Ask: Reported pKd for FPVSIPITA : what is it?
Reply: 5.43

---

biological target: HLA-A*68:01; test: IEDB peptide-MHC binding, purified MHC/competitive/radioactivity; filed as Kd, often an IC50 or EC50 that approximates it; bounds were set here for any values at or beyond the usual limits of such assays; settings: source organism: Mammarenavirus juninense
pKd: −log10 of the molar value.
endpoint: pKd

Ask: Name the recorded pKd for TAVAKCNLNH .
Reply: ≤ 4.15

---

biological target: HLA-A*03:01; assay: IEDB peptide-MHC binding, purified MHC/direct/fluorescence; filed as Kd, often an IC50 or EC50 that approximates it; bounds were set here for any values at or beyond the usual limits of such assays; conditions: source organism: Escherichia coli O157:H7
pKd: −log10 of the molar value.
pKd overview

Examples from the recorded data:
[[record]]
sequence_input = "PLKVKDIPF"
target_or_system = "HLA-A*03:01"
result_value = "≤ 4.70"

[[record]]
sequence_input = "LPEFERRTL"
target_or_system = "HLA-A*03:01"
result_value = "≤ 4.70"


Here's the next entry for you.
Ask: I have this sequence here, AHGWSTFYL , and I need its recorded pKd.
Reply: ≤ 4.70

---

target: HLA-B*51:01; assay: IEDB peptide-MHC binding, purified MHC/competitive/radioactivity; filed as Kd, often an IC50 or EC50 that approximates it; bounds were set here for any values at or beyond the usual limits of such assays; settings: source organism: Vaccinia virus WR
endpoint: Kd (µM)
Field: numeric (µM). Do not append units.

[[record]]
sequence_input = "CPASKKESVI"
endpoint = "Kd"
result_value = 9.31

[[record]]
sequence_input = "LPTLFGRGV"
endpoint = "Kd"
result_value = 0.00604

[[record]]
sequence_input = "VPLPCQLMYA"
endpoint = "Kd"
result_value = 0.621


// next item, Kd requested
Ask: Which Kd reading was recorded for the sequence IPSLFIESSI ?
Reply: 1.9

---

molecular target: HLA-B*07:02; test: IEDB peptide-MHC binding, purified MHC/direct/fluorescence; filed as Kd, often an IC50 or EC50 that approximates it; bounds were set here for any values at or beyond the usual limits of such assays; settings: source organism: Francisella tularensis subsp. tularensis FSC033
pKd: −log10 of the molar value.
endpoint: pKd

Ask: Record request: pKd value, item NTIEELSGY
Reply: ≤ 4.70

---

molecular target: HLA-B*07:02; assay: IEDB peptide-MHC binding, purified MHC/competitive/radioactivity; filed as Kd, often an IC50 or EC50 that approximates it; bounds were set here for any values at or beyond the usual limits of such assays; settings: source organism: Mammarenavirus whitewaterense
endpoint: pKd
Convention used: pKd is expressed as -log10 of the molar concentration.

Ask: So what's the measured pKd for this one? APTGGVVKI
Reply: 5.75

---

target: HLA-B*15:01; test: IEDB peptide-MHC binding, purified MHC/direct/fluorescence; filed as Kd, often an IC50 or EC50 that approximates it; bounds were set here for any values at or beyond the usual limits of such assays; conditions: source organism: Mycobacterium tuberculosis
endpoint: Kd

Ask: # Kd lookup, item SIYYTLVRM
Reply: ≥ 20 µM

Measured values drawn from the Immune Epitope Database (IEDB) for this set.
